self-splicing fitness (ln) for assorted sequences
Test: self-splicing fitness, log relative to wild type (ln ratio); higher = more splicing; Tetrahymena group I intron in knt gene, E. coli kanamycin selection, DiMSum; sequences stand for … in CUCUCU…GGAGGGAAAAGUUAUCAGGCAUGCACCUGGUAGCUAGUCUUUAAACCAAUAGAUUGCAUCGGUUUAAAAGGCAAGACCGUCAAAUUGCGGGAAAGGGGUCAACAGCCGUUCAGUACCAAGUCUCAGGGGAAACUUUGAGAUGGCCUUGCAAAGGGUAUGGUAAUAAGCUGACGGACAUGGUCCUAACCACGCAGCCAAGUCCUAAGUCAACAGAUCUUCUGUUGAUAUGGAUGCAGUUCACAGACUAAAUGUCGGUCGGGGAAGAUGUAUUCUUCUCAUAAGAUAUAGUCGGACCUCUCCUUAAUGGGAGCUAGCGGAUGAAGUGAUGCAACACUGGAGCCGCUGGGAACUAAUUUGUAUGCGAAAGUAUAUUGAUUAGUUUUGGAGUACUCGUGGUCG;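 note: selection with 25 µg/mL kanamycin versus none on LB agar overnight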
Conditions: 30 °C
Readout type: self-splicing fitness (ln)

>>> value_observed("CUCGAGCAAUAUUACGCUAG")
-4.42
>>> value_observed("UUCCAGCAAUAUUACGGGCC")
-3.91
>>> value_observed("GCAGAGCAAUAUUACGAACC")
-1.87
>>> value_observed("CGCGAGCAAUAUUACGUCUG")
-0.412
>>> value_observed("AGGGAGCAAUAUUACGCUGU")
-2.11
>>> value_observed("CGGGAGCAAUAUUACGCGUA")
-2.29
>>> value_observed("GCCUAGCAAUAUUACGACGU")
-0.19
>>> value_observed("CCUGAGCAAUAUUACGUACA")
-3.13
>>> value_observed("CGUCAGCAAUAUUACGGCUC")
-1.43
>>> value_observed("UAAAAGCAAUAUUACGGCGA")
-0.67
>>> value_observed("CCUGAGCAAUAUUACGCGAG")
-4.35
>>> value_observed("GACUAGCAAUAUUACGACGG")
-2.2
>>> value_observed("CCGAAGCAAUAUUACGAUUG")
-1.16
>>> value_observed("AACAAGCAAUAUUACGCCGG")
-0.692
>>> value_observed("GUAAAGCAAUAUUACGCUAG")
-1.03
>>> value_observed("GGGCAGCAAUAUUACGAGCA")
-1.98
